test: MDCKII-LE permeability assay; assay type: in vitro ADME; conditions: dog, MDCK; MDCKII-LE cells, mean of two replicates

>  <Compound>
Cc1nc(Nc2n[nH]c3c2CN(C(=O)N[C@H](CN(C)C)c2ccccc2)C3(C)C)c2sccc2n1 [PF-309]

>  <Papp A→B (nm/s)>
9

$$$$

----------
assay: End of study tumor and plasma concentrations (LC/MS/MS); type: in vivo, mice; conditions: mouse, tumor, po, 25 mg/kg, HCT15 model; end of study, 1 h post treatment, 25 mg/kg PO BID; individual animals; read-out: Tumor concentration
Readout kind: concentration at 1 h

>  <Structure string>
Cc1nc(Nc2n[nH]c3c2CN(C(=O)N[C@H](CN(C)C)c2ccccc2)C3(C)C)c2sccc2n1

>  <Readout kind>
concentration at 1 h

>  <Recorded measurement>
6.8 ng/g

$$$$

----------
test system: Caco-2; assay: Cell proliferation assay, Caco-2; format: cell-based; settings: Homo sapiens, Caco-2; CACO2, 72 h, SRB assay; read-out: IC50

>  <Structure string>
Cc1nc(Nc2n[nH]c3c2CN(C(=O)N[C@H](CN(C)C)c2ccccc2)C3(C)C)c2sccc2n1

>  <IC50>
> 1000 nM

$$$$

----------
molecular target: P-gp (Homo sapiens); construct: expressed in transfected cells; host or cells: MDR1-MDCK cells (canine kidney MDCK); assay: MDR1-MDCK transwell assay (P-gp efflux); type: in vitro ADME; details: dog, ratio of B → A flux to A → B flux, >2 = substrate
Sequence (P08183 whole entry): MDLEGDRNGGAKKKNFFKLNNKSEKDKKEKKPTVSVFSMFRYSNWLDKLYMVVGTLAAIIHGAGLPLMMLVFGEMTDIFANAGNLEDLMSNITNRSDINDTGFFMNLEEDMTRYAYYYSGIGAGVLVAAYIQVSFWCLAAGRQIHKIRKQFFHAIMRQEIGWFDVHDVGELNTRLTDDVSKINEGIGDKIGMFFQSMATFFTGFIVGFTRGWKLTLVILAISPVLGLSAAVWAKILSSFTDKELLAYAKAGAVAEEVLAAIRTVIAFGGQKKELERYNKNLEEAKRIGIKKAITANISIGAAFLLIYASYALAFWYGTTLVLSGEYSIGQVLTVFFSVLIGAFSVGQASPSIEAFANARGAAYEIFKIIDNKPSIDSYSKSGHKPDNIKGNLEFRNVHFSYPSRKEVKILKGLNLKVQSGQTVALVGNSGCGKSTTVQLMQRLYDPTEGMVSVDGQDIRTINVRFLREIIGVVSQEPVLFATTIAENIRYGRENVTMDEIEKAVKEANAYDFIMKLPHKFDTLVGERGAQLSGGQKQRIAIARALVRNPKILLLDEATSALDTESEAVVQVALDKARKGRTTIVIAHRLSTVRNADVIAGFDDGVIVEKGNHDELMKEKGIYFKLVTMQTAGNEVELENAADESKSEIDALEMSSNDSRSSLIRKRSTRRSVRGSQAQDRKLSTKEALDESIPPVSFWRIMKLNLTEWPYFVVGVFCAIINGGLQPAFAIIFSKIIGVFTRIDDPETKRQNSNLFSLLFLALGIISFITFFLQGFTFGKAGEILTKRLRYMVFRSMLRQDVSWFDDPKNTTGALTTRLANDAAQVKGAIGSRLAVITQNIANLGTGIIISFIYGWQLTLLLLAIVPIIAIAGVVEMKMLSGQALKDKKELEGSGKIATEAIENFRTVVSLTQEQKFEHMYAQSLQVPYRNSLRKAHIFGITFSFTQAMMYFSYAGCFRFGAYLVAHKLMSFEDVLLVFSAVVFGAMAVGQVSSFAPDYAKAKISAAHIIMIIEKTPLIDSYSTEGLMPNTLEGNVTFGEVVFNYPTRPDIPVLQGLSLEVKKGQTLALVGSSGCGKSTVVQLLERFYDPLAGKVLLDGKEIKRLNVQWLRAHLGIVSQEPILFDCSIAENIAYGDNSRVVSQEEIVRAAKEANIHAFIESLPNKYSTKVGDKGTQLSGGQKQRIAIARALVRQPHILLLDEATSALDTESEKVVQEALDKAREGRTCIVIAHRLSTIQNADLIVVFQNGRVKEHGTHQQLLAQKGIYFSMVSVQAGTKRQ

>  <Compound>
Cc1nc(Nc2n[nH]c3c2CN(C(=O)N[C@H](CN(C)C)c2ccccc2)C3(C)C)c2sccc2n1 [PF-309]

>  <Assay system>
P-gp (Homo sapiens)

>  <efflux ratio>
34.9

$$$$

----------
Assay: End of study tumor and plasma concentrations (LC/MS/MS)
Assay type: in vivo, mice
Conditions: mouse, tumor and plasma, oral, 25 mg/kg, CUCRC006 model; end of study, 1 h post treatment; individual animals; read-out: Tumor: plasma ratio
Experimental: Plasma and tumor samples were collected 1 h post treatment at the end of therapeutic studies or 6 h post treatment for P-gp tumor concentration studies. PF-309 was measured in mouse plasma and tumor tissue using a validated LC/MS/MS assay carried out by the University of Colorado Cancer Center Pharmacology Shared Resource. […]

>  <Compound>
Cc1nc(Nc2n[nH]c3c2CN(C(=O)N[C@H](CN(C)C)c2ccccc2)C3(C)C)c2sccc2n1 [PF-309]

>  <Kp at 1 h>
0.08

$$$$

----------
test: End of study tumor and plasma concentrations (LC/MS/MS); assay type: in vivo, mice; conditions: mouse, plasma, po, 25 mg/kg, CUCRC047 model; end of study, 1 h post treatment, 25 mg/kg PO BID; individual animals; read-out: Plasma concentration

>  <Structure string>
Cc1nc(Nc2n[nH]c3c2CN(C(=O)N[C@H](CN(C)C)c2ccccc2)C3(C)C)c2sccc2n1

>  <concentration at 1 h, ng/mL>
110

$$$$

----------
assay: End of study tumor and plasma concentrations (LC/MS/MS); assay type: in vivo, mice; conditions: mouse, plasma, oral, 25 mg/kg; mice, Cmax (1 h); read-out: total plasma concentrations at the Cmax

>  <Structure string>
Cc1nc(Nc2n[nH]c3c2CN(C(=O)N[C@H](CN(C)C)c2ccccc2)C3(C)C)c2sccc2n1

>  <Cmax>
10 to 100 nM

$$$$

----------
system: SW837; experiment: Cell proliferation assay, SW837; type: cell-based; conditions: Homo sapiens; SW837, 72 h, SRB assay
pIC50: −log10 of the molar value.
Readout kind: pIC50

>  <Structure string>
Cc1nc(Nc2n[nH]c3c2CN(C(=O)N[C@H](CN(C)C)c2ccccc2)C3(C)C)c2sccc2n1

>  <Recorded measurement>
< 6.00

$$$$

----------
system: T84; assay: Cell proliferation assay, T84; type: cell-based; conditions: Homo sapiens; T84, PF-309 alone, 72 h; 1 uM was the maximum concentration used
pIC50: −log10 of the molar value.
Readout kind: pIC50

>  <Structure string>
Cc1nc(Nc2n[nH]c3c2CN(C(=O)N[C@H](CN(C)C)c2ccccc2)C3(C)C)c2sccc2n1

>  <Readout kind>
pIC50

>  <Recorded measurement>
< 6.00

$$$$

----------
Assay: End of study tumor and plasma concentrations (LC/MS/MS)
Format: in vivo, mice
Conditions: mouse, plasma, po, 25 mg/kg, CUCRC006 model; end of study, 1 h post treatment, 25 mg/kg PO BID; individual animals; read-out: Plasma concentration
Description: Plasma and tumor samples were collected 1 h post treatment at the end of therapeutic studies or 6 h post treatment for P-gp tumor concentration studies. PF-309 was measured in mouse plasma and tumor tissue using a validated LC/MS/MS assay carried out by the University of Colorado Cancer Center Pharmacology Shared Resource. […]

>  <Structure string>
Cc1nc(Nc2n[nH]c3c2CN(C(=O)N[C@H](CN(C)C)c2ccccc2)C3(C)C)c2sccc2n1

>  <Measurement unit>
ng/mL

>  <concentration at 1 h>
42.4

$$$$

----------
biological target: BCRP (Homo sapiens, UniProt Q9UNQ0); construct: expressed in transfected cells; host or cells: BCRP-MDCKII-LE cells (canine MDCKII subpopulation with low endogenous P-gp); assay: BCRP-MDCKII-LE transwell assay (BCRP efflux); type: in vitro ADME; settings: dog, ratio of B → A flux to A → B flux, >2 = substrate
Sequence (Q9UNQ0 whole entry): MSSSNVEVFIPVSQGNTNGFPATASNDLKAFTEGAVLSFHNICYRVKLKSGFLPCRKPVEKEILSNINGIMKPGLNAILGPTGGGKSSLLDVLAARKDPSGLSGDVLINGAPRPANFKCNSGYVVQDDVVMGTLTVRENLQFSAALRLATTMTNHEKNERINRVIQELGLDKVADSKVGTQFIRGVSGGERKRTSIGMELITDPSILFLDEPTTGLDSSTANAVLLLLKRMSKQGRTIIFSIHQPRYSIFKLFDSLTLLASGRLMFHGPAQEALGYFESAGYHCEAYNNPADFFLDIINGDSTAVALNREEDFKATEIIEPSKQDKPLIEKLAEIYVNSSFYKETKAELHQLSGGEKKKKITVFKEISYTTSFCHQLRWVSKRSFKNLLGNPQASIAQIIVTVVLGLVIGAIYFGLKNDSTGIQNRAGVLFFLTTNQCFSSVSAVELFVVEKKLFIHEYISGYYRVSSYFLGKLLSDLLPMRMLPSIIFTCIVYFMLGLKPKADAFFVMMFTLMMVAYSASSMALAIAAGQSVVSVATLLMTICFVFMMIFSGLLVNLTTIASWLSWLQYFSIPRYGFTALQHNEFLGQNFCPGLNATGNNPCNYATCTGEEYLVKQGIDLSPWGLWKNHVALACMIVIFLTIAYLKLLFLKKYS
Readout kind: efflux ratio

>  <Compound>
Cc1nc(Nc2n[nH]c3c2CN(C(=O)N[C@H](CN(C)C)c2ccccc2)C3(C)C)c2sccc2n1 [PF-309]

>  <Readout kind>
efflux ratio

>  <Recorded measurement>
7.6

$$$$

----------
test: End of study tumor and plasma concentrations (LC/MS/MS); assay type: in vivo, mice; settings: mouse, plasma, po, 25 mg/kg, Colo201 model; end of study, 1 h post treatment, 25 mg/kg PO BID; individual animals; read-out: Plasma concentration

>  <Structure string>
Cc1nc(Nc2n[nH]c3c2CN(C(=O)N[C@H](CN(C)C)c2ccccc2)C3(C)C)c2sccc2n1

>  <concentration at 1 h / ng/mL>
20.9

$$$$

----------
system: GEO; experiment: Cell proliferation assay, GEO; assay type: cell-based; conditions: Homo sapiens, 72 h, SRB assay
Readout kind: IC50

>  <Compound>
Cc1nc(Nc2n[nH]c3c2CN(C(=O)N[C@H](CN(C)C)c2ccccc2)C3(C)C)c2sccc2n1 [PF-309]

>  <Assay system>
GEO

>  <Recorded measurement>
> 1000 nM

$$$$
